- Test system: OCI-AML2;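 also: growth inhibition of OCI-AML2 cells, read out with a cell viability assay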
- ASSAY_PROCEDURE: cells
- Type: functional, cell-based, Homo sapiens
- MEASUREMENT_SETUP: Homo sapiens, OCI-AML2
- Description: SANGER: Inhibition of human OCI-AML2 cell growth in a cell viability assay.
pIC50: −log10 of the molar value.
RECORDED_ENDPOINT: pIC50

In the examples that follow, each entry is paired with its recorded pIC50.
STRUCTURE_STRING: OC[C@H](Cc1ccccc1)Nc1nc(Oc2ccc3c(c2)CCC3)nc2c1ncn2Cc1ccc(-c2ccccc2)cc1
pIC50: 5.24
//
STRUCTURE_STRING: CC1(C)CCC(c2ccc(Cl)cc2)=C(CN2CCN(c3ccc(C(=O)NS(=O)(=O)c4ccc(N[C@H](CCN5CCOCC5)CSc5ccccc5)c(S(=O)(=O)C(F)(F)F)c4)cc3)CC2)C1
pIC50: < 5.70
//
STRUCTURE_STRING: CN(C)CCOc1ccc(-c2nc(-c3ccncc3)c(-c3ccc4c(c3)CC/C4=N\O)[nH]2)cc1
pIC50: < 5.30

Moving on to another compound below.
Look up pIC50 for this compound: CC1=C(/C=C/C(C)=C/C=C/C(C)=C/C(=O)O)C(C)(C)CCC1 < 5.00
